Test system: Escherichia coli ATCC 25922
MEASURED ATTRIBUTE: MIC (µM)
State the answer as a number, implicitly in µM.

In: Hello, I am looking for reported MIC with Escherichia coli ATCC 25922 for CC(C)C[C@H](NC(=O)[C@H](CCCCN)NC(=O)[C@H](CCCN=C(N)N)NC(=O)[C@H](Cc1ccccc1)NC(=O)[C@H](Cc1ccccc1)NC(=O)[C@H](CCCCN)NC(=O)[C@H](CCCCN)NC(=O)[C@H](Cc1ccccc1)NC(=O)[C@H](CCCN=C(N)N)NC(=O)[C@H](CCCCN)NC(=O)[C@@H](NC(=O)[C@@H](N)CC(C)C)C(C)C)C(=O)N[C@@H](CCCCN)C(=O)N[C@@H](CCCCN)C(=O)N[C@@H](CO)C(=O)N[C@H](C(=O)N[C@@H](CCCCN)C(N)=O)C(C)C [LVKRFKKFFRKLKKSVK] . Could you help?
Out: 117

----------
Tested on: Pseudomonas aeruginosa ATCC 9027
ASSAY METHOD TEXT: ≥ marks a high value that may be exact or a test limit, other limits are often not marked, values filed in µg/mL are converted to µM
MEASURED ATTRIBUTE: MIC (µM)
Please reply with the bare figure in µM and do not write the unit itself.

>  <SMILES STRING>
NCCCC[C@H](NC(=O)[C@H](Cc1c[nH]c2ccccc12)NC(=O)[C@H](Cc1c[nH]c2ccccc12)NC(=O)[C@H](CCCCN)NC(=O)[C@H](Cc1c[nH]c2ccccc12)NC(=O)[C@H](Cc1c[nH]c2ccccc12)NC(=O)[C@@H](N)CCCN=C(N)N)C(N)=O

>  <NUMERIC VALUE>
27.2

$$$$

Kindly consider the entry below.
In: Which MIC is reported for this compound? CC[C@H](C)[C@H](NC(=O)[C@H](CO)NC(=O)[C@H](CCCCN)NC(=O)[C@H](C)NC(=O)[C@H](C)NC(=O)[C@H](CC(N)=O)NC(=O)[C@H](Cc1c[nH]c2ccccc12)NC(=O)[C@H](CC(C)C)NC(=O)[C@@H](NC(=O)[C@H](CO)NC(=O)[C@H](CC(C)C)NC(=O)[C@@H](N)Cc1ccccc1)[C@@H](C)O)C(=O)N[C@@H](Cc1ccccc1)C(N)=O
Out: 10

----------
Test system: Pseudomonas aeruginosa ATCC 9027
ASSAY METHOD TEXT: ≥ marks a high value that may be exact or a test limit, other limits are often not marked, values filed in µg/mL are converted to µM
The reader will find reported MIC values listed item by item below.
Give your result in µM as a bare value.

>  <SMILES STRING>
CC(C)[C@H](N)C(=O)N[C@@H](CCCN=C(N)N)C(=O)N[C@@H](CCCN=C(N)N)C(=O)N[C@@H](Cc1c[nH]c2ccccc12)C(=O)N[C@@H](Cc1c[nH]c2ccccc12)C(=O)N[C@@H](Cc1c[nH]c2ccccc12)C(=O)N[C@@H](CCCN=C(N)N)C(=O)N[C@@H](CCCN=C(N)N)C(=O)N[C@H](C(N)=O)C(C)C

>  <TARGET ENTITY>
Pseudomonas aeruginosa ATCC 9027

>  <MIC [µM]>
32

$$$$

Here is the next item to consider.
In: Form field: reported MIC of CC[C@H](C)[C@H](NC(=O)[C@H](CCCCN)NC(=O)[C@@H]1CCCN1C(=O)[C@H](CC(C)C)NC(=O)[C@H](Cc1ccccc1)NC(=O)[C@H](CC(N)=O)NC(=O)[C@H](C)NC(=O)[C@H](C)NC(=O)[C@H](CC(C)C)NC(=O)CN)C(=O)N[C@@H](Cc1ccccc1)C(=O)N[C@@H](CS)C(=O)N[C@@H](CCCCN)C(=O)N[C@H](C(=O)N[C@H](C(=O)N[C@@H](CCCN=C(N)N)C(=O)N[C@@H](CCCCN)C(=O)N[C@@H](CS)C(N)=O)[C@@H](C)O)[C@@H](C)CC
Out: 6.18

----------
Tested on: Micrococcus luteus
Entries and their MIC values follow.

Known MIC results, listed for orientation:
>  <MOLECULE>
CC[C@H](C)[C@H](NC(=O)[C@@H](NC(=O)[C@H](CO)NC(=O)[C@H](C)NC(=O)[C@@H](NC(=O)[C@H](CCCCN)NC(=O)[C@H](C)NC(=O)[C@@H](NC(=O)[C@@H](NC(=O)[C@H](CC(=O)O)NC(=O)[C@H](Cc1ccccc1)NC(=O)[C@H](CC(C)C)NC(=O)CN)C(C)C)[C@@H](C)CC)C(C)C)C(C)C)C(=O)NCC(=O)NCC(=O)N[C@@H](CC(C)C)C(N)=O [GLFDVIAKVASVIGGL]

>  <MIC>
≥ 64.1 µM

$$$$
>  <MOLECULE>
CC[C@H](C)[C@H](NC(=O)[C@@H](NC(=O)[C@H](CO)NC(=O)[C@H](C)NC(=O)[C@@H](NC(=O)[C@H](CCCCN)NC(=O)[C@H](CCCCN)NC(=O)[C@@H](NC(=O)[C@@H](NC(=O)[C@H](CC(=O)O)NC(=O)[C@H](C)NC(=O)[C@H](CC(C)C)NC(=O)CN)C(C)C)[C@@H](C)CC)C(C)C)C(C)C)C(=O)NCC(=O)NCC(=O)N[C@@H](CC(C)C)C(N)=O [GLADVIKKVASVIGGL]

>  <MIC>
≥ 32.5 µM

$$$$

Now consider the entry below.
In: Recorded MIC for CC[C@H](C)[C@H](NC(=O)[C@@H](NC(=O)[C@H](C)NC(=O)[C@H](Cc1ccccc1)NC(=O)[C@H](CC(C)C)NC(=O)CN)C(C)C)C(=O)N[C@@H](CCCCN)C(=O)N[C@@H](CCCCN)C(=O)N[C@H](C(=O)N[C@@H](C)C(=O)N[C@@H](CCCCN)C(=O)N[C@H](C(=O)N[C@H](C(=O)N[C@@H](CCCCN)C(=O)N[C@@H](CCCCN)C(=O)N[C@@H](CC(C)C)C(N)=O)[C@@H](C)CC)C(C)C)C(C)C [GLFAVIKKVAKVIKKL] , please?
Out: 14.2 µM

----------
# Shigella dysenteriae ATCC 9752: MIC values follow
Form entry: value (µM) — number only.

>  <SMILES STRING>
CC(C)C[C@H](NC(=O)[C@H](Cc1c[nH]c2ccccc12)NC(=O)[C@H](CCCCN)NC(=O)[C@H](Cc1ccccc1)NC(=O)[C@H](CC(C)C)NC(=O)[C@H](Cc1c[nH]c2ccccc12)NC(=O)[C@H](CCCCN)NC(=O)[C@H](CC(C)C)NC(=O)[C@@H](N)Cc1ccccc1)C(=O)N[C@@H](CCCCN)C(=O)N[C@@H](CCCCN)C(N)=O

>  <MIC [µM]>
16.3

$$$$

Next compound, MIC to be filled in.
In: Look up MIC with Shigella dysenteriae ATCC 9752 for this compound: CC(C)C[C@H](NC(=O)[C@H](CC(C)C)NC(=O)[C@H](CCCCN)NC(=O)[C@H](CCCCN)NC(=O)[C@H](CC(C)C)NC(=O)[C@H](CC(C)C)NC(=O)[C@H](CCCCN)NC(=O)[C@H](CCCCN)NC(=O)[C@@H](N)CC(C)C)C(=O)N[C@@H](CCCCN)C(=O)N[C@@H](Cc1c[nH]c2ccccc12)C(N)=O
Out: 1.42

----------
System: Escherichia coli ATCC 25922
MEASURED ATTRIBUTE: MIC (µM)
Give a bare numeral; the unit µM is implied.

In: Look up MIC: CC(C)C[C@H](NC(=O)[C@H](C)NC(=O)[C@H](CCCCN)NC(=O)[C@H](C)NC(=O)[C@H](C)NC(=O)CNC(=O)[C@H](CCCCN)NC(=O)[C@H](CC(C)C)NC(=O)[C@H](CC(C)C)NC(=O)[C@H](CC(=O)O)NC(=O)[C@H](CCCCN)NC(=O)[C@H](Cc1ccccc1)NC(=O)CN)C(=O)N[C@H](C(=O)N[C@@H](CCCCN)C(=O)N[C@H](C(=O)N[C@H](C(=O)N[C@@H](CC(C)C)C(=O)N[C@@H](CCCCN)C(N)=O)C(C)C)[C@@H](C)O)C(C)C
Out: 5

----------
Assay read-out MIC; system under study: Staphylococcus aureus ATCC 6538P.
Give just the number in µM; leave the unit off.

Guide cases for MIC, answers given:
>  <SMILES STRING>
CC(C)C[C@H](NC(=O)[C@H](CCCCN)NC(=O)[C@H](CC(C)C)NC(=O)[C@H](CC(C)C)NC(=O)[C@H](CC(C)C)NC(=O)[C@H](CC(C)C)NC(=O)[C@H](CC(C)C)NC(=O)[C@H](CCCCN)NC(=O)[C@H](CC(C)C)NC(=O)[C@@H](N)CCCCN)C(=O)N[C@@H](CCCCN)C(N)=O

>  <TARGET ENTITY>
Staphylococcus aureus ATCC 6538P

>  <MIC / µM>
1.51

$$$$
>  <SMILES STRING>
CC(C)C[C@H](NC(=O)[C@H](Cc1c[nH]c2ccccc12)NC(=O)[C@H](Cc1c[nH]c2ccccc12)NC(=O)[C@H](CC(C)C)NC(=O)[C@@H](N)Cc1ccccc1)C(=O)N[C@@H](Cc1ccccc1)C(=O)N[C@@H](CCCCN)C(=O)N[C@@H](Cc1c[nH]c2ccccc12)C(=O)N[C@@H](C)C(=O)N[C@@H](Cc1c[nH]c2ccccc12)C(=O)N[C@@H](CCCCN)C(N)=O

>  <TARGET ENTITY>
Staphylococcus aureus ATCC 6538P

>  <MIC / µM>
3.91

$$$$

In: MIC for CC(C)C[C@H](NC(=O)[C@H](Cc1c[nH]c2ccccc12)NC(=O)[C@H](CCCCN)NC(=O)[C@H](Cc1ccccc1)NC(=O)[C@H](CC(C)C)NC(=O)[C@H](Cc1c[nH]c2ccccc12)NC(=O)[C@H](CCCCN)NC(=O)[C@H](CC(C)C)NC(=O)[C@@H](N)Cc1ccccc1)C(=O)N[C@@H](CCCCN)C(=O)N[C@@H](CCCCN)C(N)=O ?
Out: 8.13
